- Species: Rattus norvegicus
- Test Details: Open TG-GATES - Regimen: Single
- Type: toxicity, organism-based, Sprague-Dawley
- Design: regimen Single, gender Male, age 6 weeks
- Assay Conditions: in vivo, po, 0 mg/kg, 3 h, tissue Plasma, route gavage, dose level Control
Experimental Readout: AST (IU/L)
Lab book: enter the figure in IU/L, no units written.

The recorded AST for entry "CCSCC[C@H](N)C(=O)O" equals 64.4

The recorded AST for entry "CN1C(=O)OC(C)(C)C1=O" equals 85

The recorded AST for entry "O=C(O)c1cccnc1" equals 68.6

Further cases:
The recorded AST for entry CC(=N)S [THIOACETAMIDE] equals 69.2

The recorded AST for entry "Oc1ncnc2[nH]ncc12" equals 60

The recorded AST for entry "C[C@]12CCC(=O)C=C1CC[C@@H]1[C@@H]2CC[C@@]2(C)[C@H]1CC[C@]2(C)O" equals 80.2
